test system: CAKI-1 renal; assay: NCI tumour cell line growth inhibition, 48 h
Each entry below lists one item and its recorded TGI value.

{"compound": "CCC(=O)Nc1nc2c(ncn2C2OC(COC(=O)CC)C(OC(=O)CC)C2OC(=O)CC)c(=O)[nH]1 (centres undefined)", "measured-target": "CAKI-1 renal", "TGI": "> 100 µM"}

For CAKI-1 renal, give the measured TGI of the entry C(=N\Nc1nnn(Cc2ccccc2)n1)/c1ccccc1 > 100 µM

For CAKI-1 renal, give the measured TGI of the entry Nc1ncnc2c1ncn2CC(O)CO (centres undefined) > 100 µM

For CAKI-1 renal, give the measured TGI of the entry CCOC(=O)/C(O)=C1\C(=O)N(C)C(=O)C1c1cccc(OC)c1 (centres undefined) > 100 µM

For CAKI-1 renal, give the measured TGI of the entry CN1/C(=C\C=C\C2=[N+](C)c3ccccc3C2(C)C)C(C)(C)c2ccccc21 5.04 µM

For CAKI-1 renal, give the measured TGI of the entry CC(=O)c1ccc(O)c(CN(C2CCCCC2)C2CCCCC2)c1O > 100 µM

###

tested on: SW-620 colon; test: NCI tumour cell line growth inhibition, 48 h
Each entry below lists one item and its recorded TGI value.

{"compound": "O=C(O)c1ccccc1/C=N/N=C1c2ccccc2-c2ccccc21", "TGI": "> 100 µM"}

Return the recorded TGI value; entry: CCOC(=O)c1cc2c3c(c(O)c(OC)c2s1)N(C(=O)c1cc2c4c(c(O)c(OC)c2s1)N(C(C)=O)CC4)CC3 > 100 µM

Return the recorded TGI value; entry: c1ccc2[nH]c(-c3ccc(Nc4nc(N5CCCCC5)nc(N5CCOCC5)n4)cc3)nc2c1 5.87 µM

###

Each entry below lists one item and its recorded TGI value.
tested on: COLO 205 colon; assay: NCI tumour cell line growth inhibition, 48 h
Supply the numeric figure in µM, leaving out any unit text.

{"compound": "CC(C)(C)c1cc(C=C(C#N)C#N)cc(C(C)(C)C)c1O", "TGI [µM]": 0.369}

Return the recorded TGI value; entry: C[C@]12CC[C@@H]3c4cc(I)c(O)cc4CC[C@H]3[C@@H]1CC[C@@H]2O 36.2

Return the recorded TGI value; entry: COc1cnc2c(c1)C(=O)c1c-2n(CCCN2CCN(C)CC2)c(=O)c2cc([N+](=O)[O-])ccc12 3.38

Return the recorded TGI value; entry: COc1c(O)c2c(=O)cc(OC)c3c4c(OC)cc(=O)c5c(O)c(OC)c6c(c(c1C(C(C)O)C6C(C)O)c23)c54 (stereo not given) 4.22

Return the recorded TGI value; entry: OCc1ccc2c(c1)CC1(Cc3ccc(/C=N/O)cc3C1)C2 (stereo not given) 13.9

Return the recorded TGI value; entry: COC1=C(C)C(=O)c2c(c(COC(N)=O)c3n2CC(OC(C)=O)C3OC(C)=O)C1=O (stereo not given) 0.314

###

system: SF-295 CNS; assay: NCI tumour cell line growth inhibition, 48 h
Each entry below lists one item and its recorded TGI value.

Use these answered entries as a reference point.
{"compound": "Cc1ccccc1C(=O)N1CCN(C(=O)c2ccccc2C)CC1", "measured-target": "SF-295 CNS", "TGI": "> 100 µM"}
{"compound": "COc1ccc(CN2C3CC2CN(c2ccc(-c4cc(OCC(C)(C)O)cn5ncc(C#N)c45)cn2)C3)cn1", "measured-target": "SF-295 CNS", "TGI": "> 100 µM"}
{"compound": "O=[N+]([O-])c1ccc2c(c1)C1=NN(c3ccccc3)C(c3ccccc3Br)C1CCC2 (stereo unspecified)", "measured-target": "SF-295 CNS", "TGI": "> 50 µM"}
{"compound": "O=C(O)c1ccc(C2C(=O)N[C@@H]3CCC[C@H]23)cc1 (stereo partly specified)", "measured-target": "SF-295 CNS", "TGI": "> 100 µM"}
{"compound": "CC(=O)c1cnc2oc3ccc(O)cc3c2c1-c1ccccc1", "measured-target": "SF-295 CNS", "TGI": "> 100 µM"}

Continue with the compound presented below.
Return the recorded TGI value; entry: CC(NC(=O)N(C)C)NC(=O)N(C)C > 10 µM

Hello, the source for this data is PubChem BioAssay (NCI), in case you need it.
